Data origin: patent US8008547B2

- experiment: Standard protocol for determination of kcat and KM (continuous spectrophotometric assay, Acetyl CoA hydrolysis at 235 nm)
- Type: biochemical
- condition: purified protein; about 23° C.; pH 6.8; 0.2 mM acetyl CoA; glyphosate 0.125 to 10 mM
readout_type: Km

May I ask what Km has been recorded for SEQ ID NO: 291: GAT polypeptide (protein, 12_6D1, GAT polypeptide) MIEVKPINAEDTYEIRHRILRPNQPLEACMYETDLLGGTFHLGGYYRGKLISIASFHQAEHPELEGQKQYQLRGMATLEEYREQKAGSTLIRHAEELLRKKGADLLWCNARTSASGYYKKLGFSEQGGVYDIPPVGPHILMYKKLT ?
1200 µM

May I ask what Km has been recorded for SEQ ID NO: 490: GAT polypeptide (protein, 3_6B1, GAT polypeptide) MLEVKPINAEDTYELRHRILRPNQPIEACMYESDLLRGAFHLGGYYRGKLISIASFHQAEHPELQGQKQYQLRGMATLEGYREQKAGSSLIKHAEEILRKRGADLLWCNARTSASGYYKKLGFSEQGEVFETPPVGPHILMYKRIT ?
430 µM

May I ask what Km has been recorded for SEQ ID NO: 402: GAT polypeptide (protein, 6_3D6, GAT polypeptide) MIEIKPINAEDTYEIRHRILRPNQPLEACMYETDLLGGTFHLGGYYRGKLISIASFHQAEHPELEGQKQYQLRGMATLEGYREQKAGSTLIRHAEELLRKKGADLLWCNARTSASGYYKKLGFSEQGEVYDIPPVGPHILMYKKLT ?
1000 µM

May I ask what Km has been recorded for SEQ ID NO: 362: GAT polypeptide (protein, 3C_10H3, GAT polypeptide) MIEVKPINAEDTYEIRHRILRPNQPLEACMYETDLLGGTFHLGGYYRGKLISIASFHQAEHSELEGQKQYQLRGMATLEGYREQKAGSTLIRHAEELLRKKGADLLWCNARISASGYYKKLGFSEQGGVYDIPPVGPHILMYKKLT ?
1100 µM

May I ask what Km has been recorded for SEQ ID NO: 485: GAT polypeptide (protein, 1_6H6, GAT polypeptide) MIEVKPINAEDTYELRHKILRPNQPIEACMYESDLLRGSFHLGGFYRGQLISIASFHQAEHSDLEGQKQYQLRGMATLEGYRDQKAGSSLIKHAEEILRKRGADLLWCNARTSAAGYYKRLGFSEQGEIFDTPPVGPHILMYKKIT ?
1050 µM

May I ask what Km has been recorded for SEQ ID NO: 396: GAT polypeptide (protein, 6_22C9, GAT polypeptide) MIEVKPINAEDTYEIRHRILRPNRPLEACMYETDLLGGTFHLGGYYRGKLISIASFHQAEHPGLEGKKQYQLRGMATLEEYREQKAGSTLIRHAEELLRKKGADLLWCNARTSASGYYKKLGFSEQGGVYDIPPVGPHILMYKKLT ?
3200 µM

May I ask what Km has been recorded for SEQ ID NO: 348: GAT polypeptide (protein, 20F2, GAT polypeptide) MIEVKPINAEDTYEIRHRILRPNQPLEACMYETDLLGGTFHLGGYYRGKLISIASFHQAEHSELEGQKQYQLRGMATLEGYREQKAGSTLIRHAEELLRKKGADLLWCNARTSVSGYYEKLGFSEQGEVYDIPPIGPHILMYKKLT ?
1900 µM

May I ask what Km has been recorded for SEQ ID NO: 419: GAT polypeptide (protein, 7_5C7, GAT polypeptide) MIEVKPINAEDTYEIRHRILRPNQPLEACMYETDLLGGTFHLGGYYRGKLISIASFHQAEHPELEGQKQYQLRGMATLEGYREQKVGSTLIRHAEELLRKKGADLLWCNARTSASGYYKKLGFSEQGGVYDIPPVGPHILMYKKLT ?
1000 µM

May I ask what Km has been recorded for SEQ ID NO: 355: GAT polypeptide (protein, 2H3, GAT polypeptide) MIEVKPINAEDTYEIRHRILRPNQPLEACKYETDLLGGTFHLGGYYQGKLISTASFHQAGHSELEGQKQYQLRGMATLEGYRERKAGSTLIRHAEELLRKKGADLLWCNARISASGYYKKLGFSEQGGVYDIPPIGPHILMYKKLT ?
900 µM

May I ask what Km has been recorded for SEQ ID NO: 411: GAT polypeptide (protein, 6_7D1, GAT polypeptide) MIEVKPINAEDTYEIRHRILRPNQPLEACMYETDLLRGAFHLGGYYRGKLISIASFHQAEHSELEGQKQYQLRGMATLEGYREQKAGSTLIRHAEELLRKKGADLLWCNARTSASGYYKKLGFSEQGGVYDIPPVGPHILMYKKLT ?
500 µM

May I ask what Km has been recorded for SEQ ID NO: 324: GAT polypeptide (protein, 14_8F7, GAT polypeptide) MIEVKPINAEDTYEIRHRILRPNQPLEACKYETDLLGGTFHLGGYYRGKLVSIASFHQAEHPELEGQKQYQLRGMATLEEYREQKAGSTLIRHAEALLRKKGADLLWCNARTSASGYYKKLGFSEQGEVYDIPPTGPHILMYKKLT ?
1800 µM

May I ask what Km has been recorded for SEQ ID NO: 400: GAT polypeptide (protein, 6_23H7, GAT polypeptide) MIEVKPINAEDTYEIRHRILRPNQPLEACMYETDLLGGTFHLGGYYRGKLISIASFHQAEHSELEGQKQYQLRGMATLEGYREQKAGSTLIRHAEEILRKKGADLLWCNARTSASGYYKKLGFSEQGGVYDIPPVGPHILMYKKLT ?
1200 µM
